biological target: HIV-1 IAVI-C22 envelope protein (Env) on pseudovirus (HIV-1 isolate IAVI-C22); experiment: cell-based or functional assay
measured.endpoint: IC50 (µg/mL), pseudovirus neutralization

For 1456_P20 (PG20) (antibody, human IgG1, kappa, V domains shown) VH: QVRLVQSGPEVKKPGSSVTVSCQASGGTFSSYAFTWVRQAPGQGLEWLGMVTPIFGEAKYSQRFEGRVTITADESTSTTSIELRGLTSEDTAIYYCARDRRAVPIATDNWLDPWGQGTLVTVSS VL: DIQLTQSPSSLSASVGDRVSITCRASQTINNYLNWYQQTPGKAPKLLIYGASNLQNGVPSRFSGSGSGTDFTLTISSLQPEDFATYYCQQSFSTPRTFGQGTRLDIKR the binder record lists IC50 (µg/mL), pseudovirus neutralization as > 50 µg/mL

get_value(item= 1443_C16 (PG16) (TCN-116) (antibody, V domains shown) VH: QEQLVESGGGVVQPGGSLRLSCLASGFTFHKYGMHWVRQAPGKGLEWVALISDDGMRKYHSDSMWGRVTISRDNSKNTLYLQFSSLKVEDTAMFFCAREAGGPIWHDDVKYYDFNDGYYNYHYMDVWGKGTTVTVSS VL: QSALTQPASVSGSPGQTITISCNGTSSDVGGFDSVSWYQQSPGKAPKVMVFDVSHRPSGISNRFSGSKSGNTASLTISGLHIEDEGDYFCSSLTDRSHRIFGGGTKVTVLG , readout=IC50 (µg/mL), pseudovirus neutralization) returns 0.069 µg/mL

Kindly note the recorded IC50 (µg/mL), pseudovirus neutralization for 1495_C14 (PGC14) (antibody, human IgG1, lambda, V domains shown) VH: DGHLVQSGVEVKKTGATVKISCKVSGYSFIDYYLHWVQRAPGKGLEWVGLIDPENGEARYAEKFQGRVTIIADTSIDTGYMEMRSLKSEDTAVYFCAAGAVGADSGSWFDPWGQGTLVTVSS VL: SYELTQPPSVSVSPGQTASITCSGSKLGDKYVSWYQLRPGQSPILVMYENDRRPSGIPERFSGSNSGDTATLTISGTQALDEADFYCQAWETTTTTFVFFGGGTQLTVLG , which is > 50 µg/mL

Lab note: 1460_G14 (PGG14) (antibody, human IgG1, kappa, V domains shown) VH: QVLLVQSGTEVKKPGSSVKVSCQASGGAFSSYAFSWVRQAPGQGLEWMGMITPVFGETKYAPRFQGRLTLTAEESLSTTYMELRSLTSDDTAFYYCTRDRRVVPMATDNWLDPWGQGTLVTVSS VL: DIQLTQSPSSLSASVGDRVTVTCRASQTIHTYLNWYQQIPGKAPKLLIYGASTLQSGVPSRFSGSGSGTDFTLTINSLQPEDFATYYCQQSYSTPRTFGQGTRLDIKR gave IC50 (µg/mL), pseudovirus neutralization of > 50 µg/mL
